Tested on: OVCAR-8
Test Protocol: NCI tumour cell line growth inhibition, 48 h
Calls of active or inactive are those of the source. No stated cut-off is given here; in the data, active = GI50 up to about 1.1 µM and inactive = higher.
Result category, one only: active, inactive

These solved cases illustrate the format of a correct answer.
C=CCC(NCc1ccccc1)[C@H](OCc1ccccc1)[C@@H]1COC(C)(C)O1 (stereo partly specified)
inactive
CN(C)CCCSc1nc2c(c(=N)n1-c1ccccc1)c(=S)n(-c1ccccc1)c(=S)n2-c1ccccc1
inactive
Cc1cc(OCc2nnc3n2N=C(c2cc(F)c(Cl)cc2Cl)/C(=C/c2ccc(-c4ccc(Cl)cc4)o2)S3)ccc1Cl
inactive
C[C@]12CCC(O)CC1=CC[C@@H]1[C@@H]2CC[C@]2(C)C(=O)[C@H](n3ccnc3)C[C@@H]12 (stereo partly specified)
inactive

query: Per the assay record, what outcome was assigned to `Brc1ccc(N2C[N+](c3ccc(Br)cc3)=NC(c3ccccc3)=N2)cc1` ?
result: inactive

query: Also, `Nc1nc(=O)[nH]c2c1cnn2COCCO` please.
result: inactive

query: Also, `c1ccc(/C(=N/Nc2ccccn2)c2ncccn2)cc1` please.
result: active

query: Also, `CCOC(=O)c1oc2ccc([N+](=O)[O-])c3c2c1CCC3` please.
result: inactive

query: Also, `Cc1cc(=O)c2ccccc2n1CCCCCCCCCCn1c(C)cc(=O)c2ccccc21` please.
result: inactive

query: Also, CC1C2(C)OC(=N)C(C#N)(C(c3ccccc3)O2)C1(C#N)C#N (stereo unspecified) please.
result: inactive
